Cited source for all entries: the supplement of paper PMC6757056

B1: library; a variant is named by its letters at N, in order (parent)
chain: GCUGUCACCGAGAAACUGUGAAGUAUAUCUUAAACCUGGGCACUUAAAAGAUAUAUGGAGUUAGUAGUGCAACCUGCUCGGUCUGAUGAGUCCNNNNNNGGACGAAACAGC

# Variants of: B1
# Assay Procedure: normalized RNA/DNA level with ligand (relative to sTRSVctl = 100) (log10 (% of sTRSVctl)); HEK293T; ligand: cyclic di-GMP (c-di-GMP-II aptamer); ligand concentration (+) RNA-Seq: 1 mM; higher = less ribozyme self-cleavage, higher mRNA level
# Particulars: reporter: mCherry (pCS4076), ligand present: yes
Listing of entries alongside the reported normalized RNA/DNA level with ligand (log10).
Readout Name: normalized RNA/DNA level with ligand (log10)

• CCUUGC = 1.83
• UUGCAU = 1.81
• AUGCGU = 1.79
• CCGAAG = 1.51
• GCCCUU = 1.85
• UGUGUG = 1.86
• GCUGUA = 1.74
• UAAUCA = 1.87
• AUCGUC = 1.92
• AUCAGU = 1.82
• UACGUC = 1.81
